protocol-text: Compound cytotoxicity, XTT-based colorimetric assay
Type: cell-based
condition: human, uninfected MT2 cells, day 4, XTT
Entries and their CC50 at 4 days

compound: COc1ccc(N(C)C(=O)[C@H](Cc2ccccc2)NC(=O)C(C)(C)C(=O)N[C@@H](Cc2ccccc2)C(=O)N(C)c2ccc(OC)cc2)cc1
CC50 at 4 days: ≥ 100 µM

compound: Cc1cc(N(C)C(=O)[C@H](Cc2ccccc2)NC(=O)NS(=O)(=O)N[C@@H](Cc2ccccc2)C(=O)N(C)c2ccc(C#N)c(C)c2)ccc1C#N
CC50 at 4 days: 93.5 µM

compound: CCc1ncc(N(C)C(=O)[C@H](Cc2cc(F)cc(F)c2)NC(=O)NS(=O)(=O)N[C@@H](Cc2cc(F)cc(F)c2)C(=O)N(C)c2cnc(CC)nc2)cn1
CC50 at 4 days: 37.7 µM

compound: CCc1ncc(N(C)C(=O)[C@H](Cc2cc(F)cc(F)c2)NC(=O)c2ccc(F)c(C(=O)N[C@@H](Cc3cc(F)cc(F)c3)C(=O)N(C)c3cnc(CC)nc3)c2)cn1
CC50 at 4 days: ≥ 33.3 µM

compound: COc1ccc(N(C)C(=O)[C@H](Cc2ccccc2)NC(=O)C[C@H](O)C(=O)N[C@@H](Cc2ccccc2)C(=O)N(C)c2ccc(OC)cc2)cc1
CC50 at 4 days: 34.6 µM

Record request: CC50 at 4 days value, item "COc1ccc(N(C)C(=O)[C@H](Cc2ccccc2)NC(=O)CCCCC(=O)N[C@@H](Cc2ccccc2)C(=O)N(C)c2ccc(OC)cc2)cc1"
26.9 µM

Record request: CC50 at 4 days value, item C=CCCN(C(=O)[C@H](Cc1cc(F)cc(F)c1)NC(=O)NS(=O)(=O)N[C@@H](Cc1cc(F)cc(F)c1)C(=O)N(CCC=C)c1ccc2scnc2c1)c1ccc2scnc2c1 (single isomer, unassigned)
16.2 µM

Record request: CC50 at 4 days value, item "COc1ccc(N(C)C(=O)[C@H](Cc2ccccc2)NC(=O)CC(=O)N[C@@H](Cc2ccccc2)C(=O)N(C)c2ccc(OC)cc2)cc1"
70.9 µM

Record request: CC50 at 4 days value, item "COc1ccc(NC(=O)[C@H](Cc2ccccc2)NS(=O)(=O)NC(=O)N[C@@H](Cc2ccccc2)C(=O)N(C)c2ccc(OC)cc2)cc1"
29 µM

Record request: CC50 at 4 days value, item "COc1ccc(N(C)C(=O)[C@H](Cc2ccccc2)NS(=O)(=O)CCCS(=O)(=O)N[C@@H](Cc2ccccc2)C(=O)N(C)c2ccc(OC)cc2)cc1"
30 µM

Values were extracted from patent US20180072997A1.
